- System: P-gp
- testDetails: in vitro
- runParameters: human, Caco-2
reportedMetric: efflux ratio
One number for each entry.

Please report the recorded efflux ratio for Cc1nnc2n1-c1sc(CCC(=O)N3CCOCC3)cc1C(c1ccccc1Cl)=NC2 [Apafant] .
12.4

---

- testDetails: Compound loss (PDMS ad- and absorption) in cell-free organ-chips
- Type: in vitro ADME
- runParameters: cell-free organ-chips; 10 µM per drug in cocktail; outlet vs inlet after one hour at 200 µL/h; mean of two experiments
Kindly supply the reported Compound Loss Bottom Channel (%) values for the records listed here.
One number for each entry, in %.

For each of the items listed, what is its Compound Loss Bottom Channel (%)?
1. O[C@@H](COc1cccc2ncccc12)CN1CCN([C@@H]2c3ccccc3[C@@H]3[C@H](c4ccccc42)C3(F)F)CC1 [Zosuquidar]
2. Cc1ncc2n1-c1ccc(Cl)cc1C(c1ccccc1F)=NC2 [Midazolam]
3. CCOC(=O)C1=C(C)NC(C)=C(C(=O)OC)C1c1cccc(Cl)c1Cl (centres unmarked) [Felodipine]
4. Cc1nnc2n1-c1sc(CCC(=O)N3CCOCC3)cc1C(c1ccccc1Cl)=NC2 [Apafant]

1. 99.0
2. 67.8
3. 84.0
4. 8.0
